# Procedure details: Stability in human serum at 37° C. (RP-HPLC)
# Format: in vitro ADME
# Condition info: 200 μM, read-out: Stability in human serum t1/2
Where a name gives a salt, the structure may show the parent alone.
Measurement type: half-life at 200 μM (min)

Can you look up the measured half-life at 200 μM of NCCCC(=O)Oc1ccccc1C(=O)OCc1no[n+]([O-])c1C(N)=O [MC596, hydrochloride] for me?
1.6

Any idea what half-life at 200 μM was measured for CC(N)C(=O)Oc1ccccc1C(=O)OCc1no[n+]([O-])c1C(N)=O (stereo not drawn) [MC598, hydrochloride] ?
1.3

half-life at 200 μM lookup needed for NCCC(=O)Oc1ccccc1C(=O)OCc1no[n+]([O-])c1C(N)=O [MC526] , thanks.
1.4

###

# Procedure details: Solubility in water
# Assay type: physicochemical
Counter-ions that a name gives are not always drawn.
Measurement type: solubility (µg/mL)

Sample `NCCC(=O)Oc1ccccc1C(=O)OCc1no[n+]([O-])c1C(N)=O` — what was its solubility?
10000

I: CC(N)C(=O)Oc1ccccc1C(=O)OCc1no[n+]([O-])c1C(N)=O (stereo not shown) [MC598, hydrochloride]
II: NCCCC(=O)Oc1ccccc1C(=O)OCc1no[n+]([O-])c1C(N)=O [MC596, hydrochloride]
Choose between I and II : whose measured solubility value is numerically larger? Let me know the label of the one you choose.
I
